# Tested on: Escherichia coli IAI1
# ASSAY SUMMARY: fold change of Cadaverine concentration vs plate DMSO controls (fold change (ratio)); higher = more amine produced, active = hit call of the paper (significant change in both replicates, either direction)
# MEASUREMENT PARAMETERS: incubation time: 27 h, anaerobic, 37 °C
Label scheme for fold change of Cadaverine concentration: lower than 1 is N, 1 and above is Y.

| COMPOUND | CLASS |
| --- | --- |
| O=C(CCCN1CCC(O)(c2ccc(Br)cc2)CC1)c1ccc(F)cc1 [Bromperidol] (20 µM) | N |
| Nc1nc2[nH]cc(CCc3ccc(C(=O)N[C@@H](CCC(=O)O)C(=O)O)cc3)c2c(=O)[nH]1 [Pemetrexed disodium] (20 µM) | N |
| Cc1cc2nc3ccc(=[N+](C)C)cc-3sc2cc1N [Tolonium chloride] (20 µM) | Y |
| O=C(CCCl)NCc1ccccc1 [Beclamide] (20 µM) | Y |

====

# System: Clostridium sporogenes DSM 1664
# ASSAY SUMMARY: fold change of Tryptamine concentration vs plate DMSO controls (fold change (ratio)); higher = more amine produced, active = hit call of the paper (significant change in both replicates, either direction)
# MEASUREMENT PARAMETERS: incubation time: 27 h, anaerobic, 37 °C
Where a name gives a salt, the structure may show the parent alone.
MEASURED PARAMETER: fold change of Tryptamine concentration

| MOLECULE | SYSTEM TESTED | MEASURED PARAMETER | OBS VALUE |
| --- | --- | --- | --- |
| CNCC(O)c1ccc(O)c(O)c1 (centres undefined) [Racepinephrine hydrochloride] (20 µM) | Clostridium sporogenes DSM 1664 | fold change of Tryptamine concentration | 1.05 |
| O=C(c1ccc(OCCN2CCCCC2)cc1)c1c(-c2ccc(O)cc2)sc2cc(O)ccc12 [Raloxifene hydrochloride] (20 µM) | Clostridium sporogenes DSM 1664 | fold change of Tryptamine concentration | 0.932 |
| CCCCOc1cc(C(=O)NCCN(CC)CC)c2ccccc2n1 [Dibucaine] (20 µM) | Clostridium sporogenes DSM 1664 | fold change of Tryptamine concentration | 1.02 |
| Cc1cnc(C(=O)NCCc2ccc(S(=O)(=O)NC(=O)NC3CCCCC3)cc2)cn1 [Glipizide] (20 µM) | Clostridium sporogenes DSM 1664 | fold change of Tryptamine concentration | 1.01 |

====

# Test system: Klebsiella aerogenes DSM 30053
# ASSAY SUMMARY: fold change of Putrescine concentration vs plate DMSO controls (fold change (ratio)); higher = more amine produced, active = hit call of the paper (significant change in both replicates, either direction)
# MEASUREMENT PARAMETERS: incubation time: 27 h, anaerobic, 37 °C
Structures can show the parent of a compound that is named as a salt.

| COMPOUND | SYSTEM TESTED | fold change of Putrescine concentration |
| --- | --- | --- |
| CC1(C)O[C@@H]2[C@@H](CO[C@@]3(COS(N)(=O)=O)OC(C)(C)O[C@@H]23)O1 [Topiramate] (20 µM) | Klebsiella aerogenes DSM 30053 | 0.98 |
| CN1[C@@H]2CC[C@H]1CC(OC(=O)C(O)c1ccccc1)C2 (mixture of isomers) [(R,S) Homatropine hydrobromide] (20 µM) | Klebsiella aerogenes DSM 30053 | 0.995 |
| O=S(=O)(O)c1cc(O)ccc1O [Ethamsylate diethylammonium salt] (20 µM) | Klebsiella aerogenes DSM 30053 | 1.02 |
| CC1(C)S[C@@H]2[C@H](NC(=O)C3(N)CCCCC3)C(=O)N2[C@H]1C(=O)O [Cyclacillin] (20 µM) | Klebsiella aerogenes DSM 30053 | 0.993 |

====

# System: Klebsiella aerogenes DSM 30053
# ASSAY SUMMARY: fold change of Histamine concentration vs plate DMSO controls (fold change (ratio)); higher = more amine produced, active = hit call of the paper (significant change in both replicates, either direction)
# MEASUREMENT PARAMETERS: incubation time: 27 h, anaerobic, 37 °C
Structures can show the parent of a compound that is named as a salt.
Listed here: items and their measured fold change of Histamine concentration.
MEASURED PARAMETER: fold change of Histamine concentration

| MOLECULE | MEASURED PARAMETER | OBS VALUE |
| --- | --- | --- |
| CCOC1O[C@H]([C@@H](COCc2ccccc2)OCc2ccccc2)[C@H](OCc2ccccc2)[C@H]1O (stereo partly specified) [Tribenoside] (20 µM) | fold change of Histamine concentration | 1.06 |
| COc1ccc(C(=O)NCc2cccnc2)cc1C(=O)NCc1cccnc1 [Picotamide monohydrate] (20 µM) | fold change of Histamine concentration | 1.07 |
| NC(=O)c1cccnc1 [Nicotinamide] (20 µM) | fold change of Histamine concentration | 0.994 |
| CC(C)c1nc(CN(C)C(=O)N[C@H](C(=O)N[C@@H](Cc2ccccc2)C[C@H](O)[C@H](Cc2ccccc2)NC(=O)OCc2cncs2)C(C)C)cs1 [Ritonavir] (20 µM) | fold change of Histamine concentration | 1.08 |
| CO[C@H]1/C=C/O[C@@]2(C)Oc3c(C)c(O)c4c(O)c(c(/C=N/N5CCN(C)CC5)c(O)c4c3C2=O)NC(=O)/C(C)=C\C=C\[C@H](C)[C@H](O)[C@@H](C)[C@@H](O)[C@@H](C)[C@H](OC(C)=O)[C@@H]1C [Rifampicin] (20 µM) | fold change of Histamine concentration | 0.732 |
| CCc1cc(Cl)c(OC)c(C(=O)NC[C@@H]2CCCN2CC)c1O [(S,-) Eticlopride hydrochloride] (20 µM) | fold change of Histamine concentration | 1.04 |

====

# Test system: Klebsiella aerogenes DSM 30053
# ASSAY SUMMARY: fold change of Cadaverine concentration vs plate DMSO controls (fold change (ratio)); higher = more amine produced, active = hit call of the paper (significant change in both replicates, either direction)
# MEASUREMENT PARAMETERS: incubation time: 27 h, anaerobic, 37 °C
Counter-ions that a name gives are not always drawn.
MEASURED PARAMETER: fold change of Cadaverine concentration

| MOLECULE | MEASURED PARAMETER | OBS VALUE |
| --- | --- | --- |
| c1ccc(CNc2ncnc3nc[nH]c23)cc1 [Aminopurine, 6-benzyl] (20 µM) | fold change of Cadaverine concentration | 1 |
| Cc1nc2ccccc2n1Cc1ccc(Cl)cc1 [Chlormidazole] (20 µM) | fold change of Cadaverine concentration | 0.989 |
| COc1cc2nc(N3CCN(C(=O)C4COc5ccccc5O4)CC3)nc(N)c2cc1OC (stereo not drawn) [Doxazosin mesylate] (20 µM) | fold change of Cadaverine concentration | 0.991 |
| COc1cccc2c1C(=O)c1c(O)c3c(c(O)c1C2=O)C[C@@](O)(C(C)=O)C[C@@H]3O[C@H]1C[C@H](N)[C@H](O)[C@H](C)O1 [Daunorubicin hydrochloride] (20 µM) | fold change of Cadaverine concentration | 1.04 |
| Nc1ccn([C@@H]2CS[C@H](CO)O2)c(=O)n1 [Lamivudine] (20 µM) | fold change of Cadaverine concentration | 0.99 |
| C[C@H]1[C@@H](O)O[C@@H]2O[C@@]3(C)CC[C@H]4[C@H](C)CC[C@@H]1[C@@]24OO3 [Artenimol] (20 µM) | fold change of Cadaverine concentration | 1.01 |
| OC(CCN1CCCCC1)(c1ccccc1)C1CC2C=CC1C2 (stereo not drawn) [Biperiden hydrochloride] (20 µM) | fold change of Cadaverine concentration | 1.01 |
| CC(=O)Oc1ccccc1C(=O)O [Acetylsalicylic acid] (20 µM) | fold change of Cadaverine concentration | 1.05 |

====

# Tested on: Ruminococcus gnavus DSM 108212
# ASSAY SUMMARY: growth (OD595) fold change vs plate DMSO controls (fold change (ratio)); higher = more growth
# MEASUREMENT PARAMETERS: incubation time: 27 h, anaerobic, 37 °C
Counter-ions that a name gives are not always drawn.
MEASURED PARAMETER: growth

| COMPOUND | SYSTEM TESTED | OBS VALUE |
| --- | --- | --- |
| CC(C)(Sc1cc(C(C)(C)C)c(O)c(C(C)(C)C)c1)Sc1cc(C(C)(C)C)c(O)c(C(C)(C)C)c1 [Probucol] (20 µM) | Ruminococcus gnavus DSM 108212 | 1.15 |
| NC(=O)OCC(COC(N)=O)c1ccccc1 [Felbamate] (20 µM) | Ruminococcus gnavus DSM 108212 | 0.902 |
| NC1CCN(c2c(F)cc3c(=O)c(C(=O)O)cn(C4CC4)c3c2Cl)C1 (stereo not drawn) [Clinafloxacin] (20 µM) | Ruminococcus gnavus DSM 108212 | 0.356 |
| O=C(CO)[C@@H](O)[C@@H](O)[C@H](O)CO [D-Tagatose] (50 µM) | Ruminococcus gnavus DSM 108212 | 0.984 |
| CN1CCN(C2=Nc3ccccc3Oc3ccc(Cl)cc32)CC1 [Loxapine succinate] (20 µM) | Ruminococcus gnavus DSM 108212 | 1.4 |
| CCN(CC)CCOCCOC(=O)C(CC)(CC)c1ccccc1 [Oxeladin citrate] (20 µM) | Ruminococcus gnavus DSM 108212 | 1.01 |
| O=P(O)(O)C(O)(Cn1ccnc1)P(=O)(O)O [Zoledronic acid hydrate] (20 µM) | Ruminococcus gnavus DSM 108212 | 1 |
| c1ccc(CNc2ncnc3nc[nH]c23)cc1 [Aminopurine, 6-benzyl] (20 µM) | Ruminococcus gnavus DSM 108212 | 0.966 |

Values from the supplement of paper PMC12494721
